test system: PPARg:RXRa DBDmut IVT, anti-RXR (DBD mutation: RXRa K156A/R161A, NR concentration 270 nM, RXRa partner concentration 90 nM); assay: PBM binding z-score (relative to random genomic background probes); higher = stronger binding; sequences stand for … in GC…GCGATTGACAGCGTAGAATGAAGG
PBM binding z-score vs 2: at or above is t, below is f.

INSERT INTO results (residuesequence, classname) VALUES
  ('ACTCGGAGGACAAAGGTCAGAGCTACGCCAGTGA', 'f'),
  ('CGTCCAAGGTCAGCAGGCCAGTGAAAGCGACGTG', 't'),
  ('TCTTGTAGATCAACAGGAGGTTGAGAAAGATCGA', 'f'),
  ('ATCTCTAGGTAAGACTCAGTCCAGTGAAGAACGC', 'f'),
  ('GGAGCGAGGGCAAGTTGATAGCAGAGTTTGATGG', 'f'),
  ('ATATGTAGGTTATCGGGTCCTTCAGTTTGCGCAT', 't'),
  ('ATCGAAAGGTCCTGAGGTGAGTATACAGAAAGGC', 'f'),
  ('AGAACGAGGGCACGCTGAGTTGAAAGCAGAGTAG', 't'),
  ('TGAATGAGGTTAAAGATCAAGGAACGTGGCGTCG', 'f'),
  ('GGAACGAGGGCATTCGACTTGATAGCATGGCGAT', 't'),
  ('CTACCATGGTGAACAAGGTCGTTGATTACTATTC', 'f'),
  ('CGTCCAAGGTCAAAGGTCAGTGTAGAGATGACGG', 't');

----------
system: RARb:RXRa (NR concentration 270 nM, RXRa partner concentration 90 nM); test: PBM binding z-score (relative to random genomic background probes); higher = stronger binding; sequences stand for … in GC…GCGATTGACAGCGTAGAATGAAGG
PBM binding z-score vs 2: at or above is T, below is F.

INSERT INTO measurements (residuesequence, classname) VALUES
  ('CCTGCTAGGTCATGGTCAACTAATCTACAGTATG', 'T'),
  ('TCGAGTAGGTTTGGGGCATTCAGAATGGCGTCGA', 'F'),
  ('CGTATTAGTTGACCATAAGGGCAACCGAAGCTCG', 'F'),
  ('TAGCCTAGGTCATATCGGGCCAGTATACGCTATA', 'T'),
  ('CCATACGGGTCACTGACAGGTTATAGCATTTGGA', 'T'),
  ('AGAATGAGGTAATTAAGATCAGGGAATTGCGGTC', 'F'),
  ('TCTCGGCGGACACGAAGGTCAGAGCTTTCCAGAG', 'T'),
  ('GGAACGAGTGCATTCGAGTTGATAGCATGGCGAT', 'F'),
  ('CCGAGTTGGTTATGGGGCATTCAGGCAACGGTGA', 'F'),
  ('TCTGCTAGGTCAACGCTGGTCAGCTAATCTGCTA', 'T'),
  ('ACTAGTTAGTCAGCTGAGGTCACACACAATTCGG', 'T');

----------
tested on: PPARg DBDmut IVT, anti-PPARg (DBD mutation: PPARg1 K132A/R137A, NR concentration 270 nM); test: PBM binding z-score (relative to random genomic background probes); higher = stronger binding; sequences stand for … in GC…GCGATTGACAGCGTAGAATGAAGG
Item-by-item account of PBM binding z-score
assayEndpoint: PBM binding z-score

INSERT INTO assay_data (residuesequence, measuredtarget, testvalue) VALUES
  ('CGTCCAAGGTCAGAGAGGGCAGTGAATGCCGAGT', 'PPARg DBDmut IVT, anti-PPARg (DBD mutation: PPARg1 K132A/R137A, NR concentration 270 nM)', -0.66),
  ('CCAGACAGGGGAAAGGTAACTCAGTCTGGTACGC', 'PPARg DBDmut IVT, anti-PPARg (DBD mutation: PPARg1 K132A/R137A, NR concentration 270 nM)', -1.01),
  ('ATCTCTAGATAAAGATAGTTCAGTGAATGCAAAT', 'PPARg DBDmut IVT, anti-PPARg (DBD mutation: PPARg1 K132A/R137A, NR concentration 270 nM)', 0.839),
  ('GCAAGTTGGTCAGTAAAAGGTCACACACCGGTCG', 'PPARg DBDmut IVT, anti-PPARg (DBD mutation: PPARg1 K132A/R137A, NR concentration 270 nM)', 0.159),
  ('GCTTTTAGTTGAAAGGGCAACCGAATGATTCTCG', 'PPARg DBDmut IVT, anti-PPARg (DBD mutation: PPARg1 K132A/R137A, NR concentration 270 nM)', 0.582),
  ('GATACAGGGTCAGCTAGAGGCCAGAGCATGGAAA', 'PPARg DBDmut IVT, anti-PPARg (DBD mutation: PPARg1 K132A/R137A, NR concentration 270 nM)', -0.294);
